src = PubChem BioAssay AID771

experiment: HT29 colon tumor cell growth inhibition, primary screen, imaging, high content imaging, 48 h, CellTiter-Glo (AID 771); settings: HCS imaging cell count, at 10 µM, stronger effect = higher value
About 55 (2%) of roughly 3,300 compounds were called active. The sample holds actives, similar compounds and a random draw of the others, so the mix is not that of the screen.
experimental-readout: growth inhibition (%)
One number for each entry, in %.

Guide cases for growth inhibition, answers given:
> print(dat)
                                   compound  unit.abbreviation  numeric.result
1  CC(C)CNC(=O)c1c(N)n(/N=C/c2ccccn2)c2nc3ccccc3nc12                  %             -40
2  CC1=C(C(=O)Nc2ccccc2)C(c2ccncc2)C(C#N)=C(SCC(=O)NC(C)C)N1 (stereo unspecified)                  %            38.7

# per-item lookup of growth inhibition; items listed below
1. CCCCOc1ccccc1C(=O)NCCCC(=O)O
2. Oc1ccccc1-c1nc(NCCN2CCOCC2)c2ccccc2n1

Output:
1. 45.1
2. 83.2

* * *

assay: HT29 colon tumor cell growth inhibition, primary screen, imaging, high content imaging, 48 h, CellTiter-Glo (AID 771); conditions: HCS imaging cell count, at 10 µM
In all, about 3,300 compounds went through this assay and about 55 (2%) were called active.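 The calls were made as follows: active = growth inhibition above 90%, meaning viable cell count by imaging cut by more than 90% versus vehicle controls; inactive = growth inhibition below 90%.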 This is one part of a sample in which actives are shown more often than they occur.
Field 'call' accepts TRUE = active, FALSE = inactive

Worked examples follow.
> print(dat)
                                    compound  classification
 1  CCOc1ccc(C2C(C(=O)c3ccc(C)o3)=C(O)C(=O)N2CCCN(CC)CC)cc1 (stereo unspecified)           FALSE
 2  COc1cc(-c2nn3c(-c4cccnc4)nnc3s2)cc(OC)c1OC           FALSE
 3  COC(=O)CN(c1nc(C)c(Br)c(OC)n1)S(=O)(=O)c1ccc(C)cc1           FALSE
 4    CCOc1ccc(-c2nnc3sc(COc4ccccc4)nn23)cc1           FALSE
 5  C=CCN(C(=O)CCC(=O)O)C1CC(=O)N(c2ccc(OC)cc2)C1=O (stereo unspecified)           FALSE
 6  CC(C)(C)c1ccc(C(O)CCCN2CCC(C(O)(c3ccccc3)c3ccccc3)CC2)cc1 (stereo unspecified)            TRUE
 7  Cc1nc(=O)c(-c2ccccc2)c(C)n1-c1ccc(S(N)(=O)=O)cc1           FALSE
 8  CCOC(=O)c1[nH]c2ccc(OC)cc2c1NC(=O)CCN1CCc2ccccc2C1           FALSE
 9  CCC1(C)Cc2ccccc2-c2nc(NCCO)n(-c3ccccc3)c(=O)c21 (stereo unspecified)           FALSE
10         c1cncc(-c2nnc3sc(-c4ccco4)nn23)c1           FALSE

Input: # fetch the recorded call for O=C(O)/C=C/c1ccc(O)c(O)c1 here
Output: FALSE

* * *

Give growth inhibition for every item shown.
test: HT29 colon tumor cell growth inhibition, primary screen, imaging, high content imaging, 48 h, CellTiter-Glo (AID 771); conditions: HCS imaging cell count, measured here: ATP CellTiter-Glo viability inhibition, at 10 µM, stronger effect = higher value
Hit rate of the full screen: of about 3,300 compounds, about 55 (2%) were called active. The entries come from a sample that favours actives as a whole.
One number for each entry, in %.

> print(dat)
                                   compound  numeric.result
1  COc1cccc(C2/C(=C(/O)c3cnn(-c4ccccc4)c3C)C(=O)C(=O)N2CCN(C)C)c1 (stereo not drawn)           -8.25

# per-item lookup of growth inhibition; items listed below
1. CCN(CC)c1ccc2cc(C(=O)Nc3ccccn3)c(=O)oc2c1
2. O=C(CCN1CCc2ccccc2CC1)c1ccc2c(c1)OCCO2
3. O=C(O)c1ccc(C2CCCCC2)cn1
4. CC(NC(=O)c1ccc(=O)oc1)c1ccccc1 (stereo not drawn)
5. CCCOc1ccc(/C(O)=C2/C(=O)C(=O)N(CCCN3CCOCC3)C2c2ccncc2)cc1 (stereo not drawn)
6. Cc1ccc(CNC(=O)c2cc3c(=O)n4ccccc4nc3n(Cc3ccco3)c2=N)cc1
7. COC(=O)CN(c1nc(C)c(Br)c(OC)n1)S(=O)(=O)c1ccc(C)cc1
8. c1cncc(-c2nnc3sc(-c4ccco4)nn23)c1

Output:
[-2.93, 14.1, -12.9, -2.53, -15.8, 10.6, 6.19, 26.6]

* * *

assay: HT29 colon tumor cell growth inhibition, primary screen, imaging, high content imaging, 48 h, CellTiter-Glo (AID 771); conditions: HCS imaging cell count, at 10 µM, stronger effect = higher value
About 55 (2%) of roughly 3,300 compounds were called active. This excerpt belongs to a sample that is enriched for actives.
Use fulfilled when the recorded growth inhibition is no lower than 10%; use not fulfilled when it is lower.

Worked examples follow.
> print(dat)
                                   compound  classification
1  COc1ccccc1-n1c(=O)c2c3c(sc2n2c(SC(C)C)nnc12)CCC3   not fulfilled
2  CCOC(=O)c1[nH]c2cc(OC)c(OC)cc2c1NC(=O)C(C)N1CCN(Cc2ccccc2)CC1 (stereo unspecified)   not fulfilled
3  C=CCNc1nc(N2CCCCC2)c(C#N)c2c1CN(Cc1ccccc1)CC2       fulfilled
4  CCCOC(=O)CSC1=C(C#N)C(c2ccc3c(c2)OCO3)CC(=O)N1 (stereo unspecified)       fulfilled
5             CN(C)CCCN1c2ccccc2CCc2ccccc21   not fulfilled

Input: Decide: growth inhibition of CN(C)CCCN1c2ccccc2CCc2ccc(Cl)cc21 >= 10%?
Output: fulfilled

Input: Decide: growth inhibition of Cc1c(=O)n(OCc2c(F)cccc2F)c2ccccc2[n+]1[O-] >= 10%?
Output: not fulfilled

Input: Decide: growth inhibition of CC(=N\O)/C(CN(C)C)=N/O >= 10%?
Output: fulfilled

Input: Decide: growth inhibition of CCCCOC(=O)CSC1=C(C#N)C(c2ccc3c(c2)OCO3)CC(=O)N1 (stereo unspecified) >= 10%?
Output: not fulfilled

Input: Decide: growth inhibition of Cn1cccc1/C=N/n1cnnc1 >= 10%?
Output: fulfilled

Input: Decide: growth inhibition of C(=N\n1cnnc1)/c1cccc(Oc2ccccc2)c1 >= 10%?
Output: not fulfilled

* * *

experiment: HT29 colon tumor cell growth inhibition, primary screen, imaging, high content imaging, 48 h, CellTiter-Glo (AID 771); conditions: HCS imaging cell count, at 10 µM
Screen size: about 3,300 compounds; about 55 (2%) were called active.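 Rule for the calls: active = growth inhibition above 90%, meaning viable cell count by imaging cut by more than 90% versus vehicle controls; inactive = growth inhibition below 90%.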 The full list was thinned out, with actives kept by preference.
Field 'call' accepts active, inactive

> print(dat)
                                   compound  classification
1  CCCOc1ccc(/C(O)=C2/C(=O)C(=O)N(CCCN3CCOCC3)C2c2ccncc2)cc1 (stereo not drawn)        inactive
2       COc1cccc(C(=O)NCC(=O)n2nc(C)cc2C)c1        inactive
3  COC(=O)c1[nH]c2cc(OC)ccc2c1NC(=O)CN1CCC(C(N)=O)CC1        inactive
4            O=C(O)c1ccc(COCC(F)(F)C(F)F)o1        inactive
5  COc1ccc(OCC(=O)N2CCN(C(=O)c3cccc4ccccc34)CC2)cc1        inactive

Input: # fetch the recorded call for CCN(CC)CCN1C(=O)C(=O)/C(=C(/O)c2c(C)[nH]c(C(=O)OC)c2C)C1c1ccccc1 (stereo not drawn) here
Output: inactive

Input: # fetch the recorded call for CC(=O)c1ccc(O)c(CO)c1 here
Output: inactive

Input: # fetch the recorded call for CCOC(=O)c1c(-c2cccs2)csc1NC(=O)CCCC(=O)O here
Output: inactive

Input: # fetch the recorded call for CN(C1CCS(=O)(=O)C1)S(=O)(=O)c1cccc2nsnc12 (stereo not drawn) here
Output: inactive

* * *

Give condensed nuclei for every item shown.
assay: HT29 colon tumor cell growth inhibition, primary screen, imaging, high content imaging, 48 h, CellTiter-Glo (AID 771); details: HCS imaging cell count, measured here: percent cells with condensed nuclei, at 10 µM, stronger effect = higher value;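 on condensed nuclei: condensed means Hoechst nuclear area under control median minus 1.5 SD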
The whole screen tested about 3,300 compounds, of which about 55 (2%) were called active. This is one part of a sample in which actives are shown more often than they occur.
State the value with its unit after it.

Guide cases for condensed nuclei, answers given:
> print(dat)
                                   compound  result
1  C=C1[C@@H](C)C2[C@H](Cc3ccccc3)NC(=O)[C@]23OC(=O)CC[C@H](O)CCC[C@H](C)C/C=C/[C@H]3[C@@H]1O (stereo not given in full)   18.2%
2  CCn1cc(C(=O)NCCCN(C)C)c(=O)c2cc(F)c(N3CCN(C)CC3)cc21   4.97%
3  CN(C)CC(O)COc1cccc(OCC(O)CN(C)C)c1 (stereo not given)   1.99%

# per-item lookup of condensed nuclei; items listed below
1. Fc1ccc2[nH]c3c(N4CCN(c5ccccc5)CC4)ncnc3c2c1
2. COc1cccc(N2CCN(c3ncnc4c3[nH]c3ccc(F)cc34)CC2C)c1 (stereo not given)
3. O=c1/c(=C/c2ccccn2)sc2n1CN(c1ccccc1)CN=2

Output:
29.2%
4.17%
16.2%
